system-tested: WWP2 (SEQ ID NO:24) (Homo sapiens, UniProt O00308)
Construct: poly-His (pET28b leader with thrombin site) (N, cleaved yes); made in house; host or cells: E. coli BL21 DE3
Sequence (O00308 with tags, fused parts or gaps): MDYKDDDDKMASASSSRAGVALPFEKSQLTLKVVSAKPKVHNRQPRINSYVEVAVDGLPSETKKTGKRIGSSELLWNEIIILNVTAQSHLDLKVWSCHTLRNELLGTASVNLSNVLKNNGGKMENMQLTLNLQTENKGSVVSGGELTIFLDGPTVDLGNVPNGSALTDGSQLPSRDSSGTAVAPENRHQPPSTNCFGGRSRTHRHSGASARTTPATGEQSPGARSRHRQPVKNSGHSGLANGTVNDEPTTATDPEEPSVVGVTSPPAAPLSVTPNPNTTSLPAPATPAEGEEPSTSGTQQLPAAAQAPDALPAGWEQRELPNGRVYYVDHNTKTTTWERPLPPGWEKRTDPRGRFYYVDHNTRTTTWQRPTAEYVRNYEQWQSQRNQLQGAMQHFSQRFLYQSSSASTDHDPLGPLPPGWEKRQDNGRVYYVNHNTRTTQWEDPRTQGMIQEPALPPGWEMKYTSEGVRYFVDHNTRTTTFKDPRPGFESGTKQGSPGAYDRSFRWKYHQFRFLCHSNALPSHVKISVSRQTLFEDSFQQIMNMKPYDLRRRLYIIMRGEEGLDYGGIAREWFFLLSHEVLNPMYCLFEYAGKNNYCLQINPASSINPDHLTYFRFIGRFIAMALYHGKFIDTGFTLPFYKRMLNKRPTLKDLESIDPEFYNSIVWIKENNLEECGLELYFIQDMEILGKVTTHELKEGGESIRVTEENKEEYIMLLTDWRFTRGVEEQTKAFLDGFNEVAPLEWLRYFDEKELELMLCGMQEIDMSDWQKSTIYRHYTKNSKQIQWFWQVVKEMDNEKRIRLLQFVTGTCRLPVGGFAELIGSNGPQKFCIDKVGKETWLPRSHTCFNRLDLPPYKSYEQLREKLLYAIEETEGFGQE
assay-notes: Epic label-free binding assay of compounds to immobilized WWP2
pKd: −log10 of the molar value.
endpoint-name: pKd

>  <structure-smiles>
CC1=C(O)C(=O)C=C2C1=CC=C1[C@@]2(C)CC[C@@]2(C)[C@@H]3C[C@](C)(C(=O)O)CC[C@]3(C)CC[C@]12C

>  <readout-number>
4.73

$$$$

###

system-tested: WWP2 (SEQ ID NO:24) (Homo sapiens)
Construct: poly-His (pET28b leader with thrombin site) (N, cleaved yes)
assay-notes: Fluorescence polarization assay (FITC/TAMRA) for disruption of WWP2 binding to PY-motif peptide probe
conditions: SEQ ID NO: 17 probe with FITC or TAMRA label; read-out: [compound] to achieve 50% change in fluorescence polarization in FP Assay
pIC50: −log10 of the molar value.
endpoint-name: pIC50

>  <structure-smiles>
Cc1nn(-c2ccc(S(=O)(=O)[O-])cc2)c([O-])c1N=Nc1ccc(-c2ccc(N=Nc3ccc4c(S(=O)(=O)[O-])cc(S(=O)(=O)[O-])c(N)c4c3[O-])c([O-])c2)cc1[O-].[Cu+2].[Cu+2].[H+].[H+].[H+]

>  <endpoint-name>
pIC50

>  <readout-number>
6.00

$$$$
>  <structure-smiles>
O=C1c2ccccc2C(=O)c2c(NC3CCCCC3)ccc(Nc3ccc(S(=O)(=O)O)cc3)c21

>  <endpoint-name>
pIC50

>  <readout-number>
5.52

$$$$

###

system-tested: WWP2 (SEQ ID NO:24) (Homo sapiens, UniProt O00308)
Construct: poly-His (pET28b leader with thrombin site) (N, cleaved yes); made in house; host or cells: E. coli BL21 DE3
assay-notes: Epic label-free binding assay of compounds to immobilized WWP2
conditions: Epic label-free binding, WWP2 as target; read-out: Kd
The entries below come with measured Kd values attached.
endpoint-name: Kd (µM)

>  <compound>
Cl.NC(CO)C(=O)NNCc1ccc(O)c(O)c1O (racemic) [Benserazide Hydrochloride]

>  <system-tested>
WWP2 (SEQ ID NO:24) (Homo sapiens, UniProt O00308)

>  <endpoint-name>
Kd

>  <readout-number>
7.9

$$$$
>  <compound>
CN(C)[C@@H]1C(O)=C(C(N)=O)C(=O)[C@@]2(O)C(=O)C3=C(O)c4c(O)cccc4[C@@](C)(O)[C@H]3[C@H](O)[C@@H]12

>  <system-tested>
WWP2 (SEQ ID NO:24) (Homo sapiens, UniProt O00308)

>  <endpoint-name>
Kd

>  <readout-number>
10.6

$$$$

###

system-tested: WWP2 polypeptide (SEQ ID NO:24) (Homo sapiens, UniProt O00308)
Construct: poly-His (pET28b leader with thrombin site) (N, cleaved yes); made in house; host or cells: E. coli BL21 DE3
assay-notes: Fluorescence polarization WWP2 protein dose-response, binding of PY-motif peptide probes
No end group written: not given here.
endpoint-name: Kd (nM)

>  <macromolecule-sequence>
ATASAPPPYVGSGGGATASAPPPYVGSGGGATASAPPPYVGSGGGRRR [SEQ ID NO:17]

>  <system-tested>
WWP2 polypeptide (SEQ ID NO:24) (Homo sapiens, UniProt O00308)

>  <unit-abbrev>
nM

>  <readout-number>
200

$$$$
